Attribution: paper PMC4399878

# TESTED TARGET: T1, SgrAI wild type (UniProt Q9F6L0 1-339)
# T1 sequence: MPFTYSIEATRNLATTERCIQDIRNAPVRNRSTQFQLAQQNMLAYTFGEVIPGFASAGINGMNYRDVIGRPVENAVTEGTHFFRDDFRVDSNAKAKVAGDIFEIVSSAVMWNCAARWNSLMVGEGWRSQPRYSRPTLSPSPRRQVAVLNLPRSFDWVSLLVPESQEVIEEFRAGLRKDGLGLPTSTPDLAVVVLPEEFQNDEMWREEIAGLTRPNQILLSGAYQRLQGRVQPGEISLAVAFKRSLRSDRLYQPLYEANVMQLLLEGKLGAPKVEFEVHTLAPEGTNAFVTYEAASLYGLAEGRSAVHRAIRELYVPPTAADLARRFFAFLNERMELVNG
# PROTOCOL DETAILS: fluorescence anisotropy; 10 mM Mg2+; 20 mM Tris-HOAc pH 8.0 (RT), 50 mM KOAc, 10 mM Ca(OAc)2 (or Mg(OAc)2), 1 mM DTT, 4 C for anisotropy and gel run; 10% glycerol for EMSA and R131A/R134A, none for wild type with 40-mers
# CONDITION LABEL: protein: recombinant; tags: none (untagged wild type; a C-terminal 6xHis version was also made); chain copies: 2; label: 5' Hex (Methods)
PROPERTY MEASURED: pKd
Reminder that pKd means the negative base-10 logarithm of the concentration expressed in mol/L.

// query Query pKd for 40-NCTA (40-NC-TA) (dsDNA) DNA 1: GATGCGTGGGTCTTCACTCCGGAGGTCTGCTCAAAATGAG DNA 2: CTCATTTTGAGCAGACCTCCGGAGTGAAGACCCACGCATC
// result 8.55
